Could you please report measured growth for the items listed next?
# Test system: E. coli TESEC Mtb Alr
# assay.remarks: growth (OD600 after 10 h); higher = more growth (less inhibition)
# particulars: arabinose 10000 nM; compound 0.1 mM; raw OD600 reference: median of DMSO wells 0.264, cell-free background 0.041
Counter-ions that a name gives are not always drawn.
Numbers only.

Known growth results, listed for orientation:
Cc1cn([C@H]2C=C[C@@H](CO)O2)c(=O)[nH]c1=O
0.158
O=C(CCCCC(=O)Nc1c(I)cc(I)c(C(=O)O)c1I)Nc1c(I)cc(I)c(C(=O)O)c1I [Iodipamide]
0.245
CC1=Nc2ccc(Cl)cc2S(=O)(=O)N1 [Diazoxide]
0.271
O=C(CCNNC(=O)c1ccncc1)NCc1ccccc1 [Nialamide]
0.276
CCCc1ncc(C[n+]2ccccc2C)c(N)n1 [Amprolium hydrochloride]
0.257

Below are some compounds; for each one, tell me its growth.
1. C=C1/C(=C\C=C2/CCC[C@]3(C)[C@@H]([C@H](C)CCCC(C)C)CC[C@@H]23)C[C@@H](O)C[C@@H]1O
2. NCCNCCNCCNCCN [Tetraethylenepentamine pentahydrochloride]

a:
1: 0.051; 2: 0.263

Take each entry in turn and give its growth.
1. O=C(O)COC(=O)Cc1ccccc1Nc1c(Cl)cccc1Cl
2. CC(C(=O)O)c1ccc2c(c1)[nH]c1ccc(Cl)cc12 (centres undefined)

a:
0.223
0.107

###

# Test system: E. coli TESEC Mtb Alr
# assay.remarks: growth (OD600 after 10 h); higher = more growth (less inhibition)
# particulars: arabinose 10000000 nM; compound 0.1 mM; raw OD600 reference: median of DMSO wells […], cell-free background 0.052
Structures can show the parent of a compound that is named as a salt.
Task for the reader: assign each of the following molecules its reported growth.
Answers are plain numbers.

Past entries and their recorded results:
Cn1c(=O)c2nc[nH]c2n(C)c1=O [Theophylline monohydrate]
0.338
C[C@]12CC[C@@H]3c4ccc(OS(=O)(=O)O)cc4CC[C@H]3[C@@H]1CCC2=O [Estropipate]
0.267
NNC(=O)c1ccncc1
0.359

For every item below, please supply its growth.
1. O=C(O)c1ccccc1Nc1cccc(C(F)(F)F)c1
2. CCOC(=O)N1CCC(=C2c3ccc(Cl)cc3CCc3cccnc32)CC1
3. COc1nc(C)nc(Cl)c1NC1=NCCN1
4. C[C@@H](c1ncncc1F)[C@](O)(Cn1cncn1)c1ccc(F)cc1F
5. CN1CCCN(C(c2ccccc2)c2ccc(Cl)cc2)CC1 (stereo not given) [Homochlorcyclizine dihydrochloride]
6. Cc1cc(NS(=O)(=O)c2ccc(N)cc2)no1
7. O=C(CCCCC(=O)Nc1c(I)cc(I)c(C(=O)O)c1I)Nc1c(I)cc(I)c(C(=O)O)c1I [Iodipamide]

a:
[0.0543, 0.0517, 0.342, 0.318, 0.118, 0.346, 0.346]

Provide reported growth for each item, in the same order as listed.
1. CCCCN1CCCCC1C(=O)Nc1c(C)cccc1C (stereo not given) [Bupivacaine hydrochloride]
2. CCOc1ccccc1OC(c1ccccc1)C1CNCCO1 (stereo not given) [Reboxetine mesylate]
3. CC(=O)OCC(=O)[C@@]12N=C(C)O[C@@H]1C[C@H]1[C@@H]3CCC4=CC(=O)C=C[C@]4(C)[C@H]3[C@@H](O)C[C@@]12C
4. CN(C)CCCN1c2ccccc2Sc2ccc(C(F)(F)F)cc21 [Triflupromazine hydrochloride]
5. C[C@@H]1CCC[C@H](C)N1NC(=O)c1ccc(Cl)c(S(N)(=O)=O)c1 [Clopamide]
6. CC(N)C12CC3CC(CC(C3)C1)C2 (stereo not given) [Rimantadine Hydrochloride]

a:
1. 0.339
2. 0.336
3. 0.347
4. 0.0543
5. 0.345
6. 0.345

For each entry beneath this line, provide reported growth.
1. C#C[C@]1(O)CC[C@H]2[C@@H]3CCc4cc(OC)ccc4[C@H]3CC[C@@]21C
2. CO[C@@]1(NC(=O)C(C(=O)O)c2ccc(O)cc2)C(=O)N2C(C(=O)O)=C(CSc3nnnn3C)CO[C@@H]21 (stereo not given in full) [Moxalactam disodium salt]
3. CN(C(=O)C(Cl)Cl)c1ccc(OC(=O)c2ccco2)cc1 [Diloxanide furoate]
4. CC1CC(OC(=O)c2ccccc2O)CC(C)(C)C1 (stereo not given) [Homosalate]
5. C[C@H]1C[C@@H]2[C@H]([C@@H](O)C[C@@]3(C)[C@H]2CC[C@]3(O)C(=O)CO)[C@@]2(C)C=CC(=O)C=C12
6. Nc1nc(N)nc(-c2cc(Cl)ccc2Cl)n1 [Irsogladine maleate]
7. CCCCOc1cc(C(=O)OCCN(CC)CC)ccc1N [Benoxinate hydrochloride]
8. NCCNCCNCCNCCN [Tetraethylenepentamine pentahydrochloride]

a:
1. 0.348
2. 0.056
3. 0.374
4. 0.332
5. 0.295
6. 0.357
7. 0.33
8. 0.303

###

# Test system: E. coli TESEC Mtb DapB
# assay.remarks: growth (OD600 after 10 h); higher = more growth (less inhibition)
# particulars: arabinose induction (level): High; compound 0.1 mM; raw OD600 reference: median of DMSO wells […], cell-free background 0.041
Counter-ions that a name gives are not always drawn.
result.type: growth
Give bare numbers.

C[C@]12CC[C@H]3[C@@H](CCC4=CC(=O)CC[C@@]43C)[C@@H]1CC[C@@H]2C(=O)CO
0.136
Fc1ccc(C(c2ccc(F)cc2)N2CCN(C/C=C/c3ccccc3)CC2)cc1 [Flunarizine dihydrochloride]
0.0896
CNCC(O)c1ccc(O)c(O)c1 (configuration not stated) [Racepinephrine HCl]
0.193

// batch mode: one growth value per listed entry
1. CC(C(O)c1ccc(O)cc1)N1CCC(Cc2ccccc2)CC1 (configuration not stated) [Ifenprodil tartrate]
2. Nc1ccc(S(=O)(=O)c2ccc(N)cc2)cc1

a:
1. 0.188
2. 0.214

Count: 2. Required value per item: growth.
1. CN(C)CCCN1c2ccccc2Sc2ccccc21 [Promazine hydrochloride]
2. CN1CCN2c3ccccc3Cc3ccccc3C2C1 (configuration not stated) [Mianserine hydrochloride]

a:
1. 0.195
2. 0.189

Provide growth values for the following items, in order.
1. CCCCCCCCNC(C)C(O)c1ccc(SC(C)C)cc1 (configuration not stated)
2. O=C1NCN(c2ccccc2)C12CCN(CCCC(c1ccc(F)cc1)c1ccc(F)cc1)CC2
3. C[C@H]1O[C@H](O[C@H]2[C@H](O)[C@@H](O)[C@@H](O[C@@H]([C@H](O)[C@@H](O)C=O)[C@H](O)CO)O[C@@H]2CO)[C@H](O)[C@@H](O)[C@@H]1N[C@H]1C=C(CO)[C@@H](O)[C@H](O)[C@H]1O
4. CC(C)NC[C@H](O)COc1ccc(CC(N)=O)cc1 [(S)-(-)-Atenolol]

a:
[0.153, 0.167, 0.196, 0.193]

Would you mind giving growth for every compound in the list below?
1. CCCCC(CC)CN1CN(CC(CC)CCCC)CC(C)(N)C1 (configuration not stated)
2. CC(=O)NC[C@H]1CN(c2ccc(N3CCOCC3)c(F)c2)C(=O)O1
3. CN(C)CCCN1c2ccccc2Sc2ccc(C(F)(F)F)cc21 [Triflupromazine hydrochloride]

a:
0.218
0.0899
0.0483

State the recorded growth for every item in the following list.
1. Nc1nc(N)c2nc(-c3ccccc3)c(N)nc2n1
2. COc1ccccc1OCC(O)CN1CCN(CC(=O)Nc2c(C)cccc2C)CC1 (configuration not stated)
3. Oc1c(Cl)cc(Cl)c2cccnc12

a:
1. 0.165
2. 0.174
3. 0.0813

###

# System: E. coli TESEC Mtb DapB
# assay.remarks: growth (OD600 after 10 h); higher = more growth (less inhibition)
# particulars: arabinose induction (level): High; compound 0.1 mM; raw OD600 reference: median of DMSO wells […], cell-free background 0.041
Counter-ions that a name gives are not always drawn.
result.type: growth
Give bare numbers.

Example molecules with recorded growth:
CCCCNc1ccc(C(=O)OCCOCCOCCOCCOCCOCCOCCOCCOCCOC)cc1 [Benzonatate]
0.17
C[C@H]1C[C@@H]2[C@H]([C@@H](O)C[C@@]3(C)[C@H]2CC[C@]3(O)C(=O)CO)[C@@]2(C)C=CC(=O)C=C12 [Methylprednisolone, 6-alpha]
0.175
C=C1/C(=C\C=C2/CCC[C@]3(C)[C@@H]([C@H](C)/C=C/[C@@H](O)C4CC4)CC[C@@H]23)C[C@@H](O)C[C@@H]1O [Calcipotriene]
0.158

Batch lookup, growth per entry.
1. CNCCCC1c2ccccc2C=Cc2ccccc21 [Protriptyline hydrochloride]
2. CN1CCN(c2c(F)cc3c(=O)c(C(=O)O)cn(CCF)c3c2F)CC1 [Fleroxacin]
3. O=C(Nc1ccccc1)OCC(CN1CCCCC1)OC(=O)Nc1ccccc1 (stereo unspecified) [Diperodon hydrochloride]
4. CC(=O)OCC(=O)[C@@]1(O)[C@H](C)C[C@H]2[C@@H]3CCC4=CC(=O)C=C[C@]4(C)[C@@]3(F)[C@@H](O)C[C@@]21C [Dexamethasone acetate]
5. CC1=Nc2ccc(Cl)cc2S(=O)(=O)N1 [Diazoxide]
6. CC(C)(C)C(=O)OCOC(=O)[C@@H]1N2C(=O)[C@@H](/N=C/N3CCCCCC3)[C@H]2SC1(C)C [Pivmecillinam hydrochloride]

a:
1: 0.164; 2: 0.0682; 3: 0.2; 4: 0.171; 5: 0.199; 6: 0.218

For the 5 molecules below, give their growth values.
1. C[C@]12C=CC(=O)C=C1CC[C@@H]1[C@@H]2[C@@H](O)C[C@@]2(C)[C@H]1CC[C@]2(O)C(=O)CO [Prednisolone]
2. COc1ccc2c(c1)c(CC(=O)O)c(C)n2C(=O)c1ccc(Cl)cc1 [Indomethacin]
3. Cc1cc(/C=C/c2ccc3cc(N(C)C)ccc3[n+]2C)c(C)n1-c1ccccc1 [Pyrvinium pamoate]
4. O=C(Oc1cccc2cccnc12)c1ccccc1 [Benzoxiquine]
5. Cc1cc(=O)n(-c2ccccc2)n1C [Antipyrine]

a:
1: 0.179; 2: 0.156; 3: 0.0704; 4: 0.182; 5: 0.191

Answer for every listed entry: what is its growth? The entries follow.
1. Cc1ccnc2c1NC(=O)c1cccnc1N2C1CC1 [Nevirapine]
2. Cc1ccc(NC(=O)c2ccc(CN3CCN(C)CC3)cc2)cc1Nc1nccc(-c2cccnc2)n1 [Imatinib]

a:
1: 0.209; 2: 0.185
